folding stability dG unfold reference
# measurement.notes: folding stability dG unfold from trypsin proteolysis; higher = more stable
Please give a number only; it is taken to be in kcal/mol.

Please look up its folding stability dG unfold: SAGGSAGGSASEIMDEFPNLEIDNVNPDHGMMIIKWPDGWYWRVNVGNGEIEPVSPEDLEDMSAGGSAGGSA [r18_381_TrROS]
0.447

Please look up its folding stability dG unfold: SAGGSGMMLEEGVGVDPTTGELHRFTYLREPERPPVEVTVTTTTVVYTTPDGTTVTVTTTTTLEGGSAGGSA [r2_326_JUSTAS]
0.671

Please look up its folding stability dG unfold: SAGGSAGGSAGMRTITIPIPDGDPENIEEQARELADAFPDLKGKKVNIEYHKDGWITITVSAGGSAGGSAGG [r17_324_TrROS]
0.694

Please look up its folding stability dG unfold: SAGGSAGGSSMTFISTSTSPGNGYTYNIYSQPGKVVVTTTAPDGTVSVTTVEVSPDTSVTVTAASAGGSAGG [r6_380_JUSTAS]
1.16

Please look up its folding stability dG unfold: SAGGSAGGSAGMKPGQEVRVEVPVPNNGKKIKIPVYVPPGYTPKQAKNMAIMMAKMIREMSAGGSAGGSAGG [r11_355_TrROS]
0.516

Please look up its folding stability dG unfold: SAGGSAGGSAGGPKVFKFKDKIIVIYPNKKPNEEVKVVVKNPKTGKKEEFKIKIPKELLKSAGGSAGGSAGG [r7_834_TrMRF]
0.512

Please look up its folding stability dG unfold: SAGGSAGGSAGSKDTMYLLKVKDLGENELKETYIEVPAEKVQEVIDALSSDPNLEIEVIPSAGGSAGGSAGG [r17_50_TrMRF]
1.06

====

# measurement.notes: folding stability dG unfold (combined trypsin and chymotrypsin); higher = more stable
Assign met whenever folding stability dG unfold does not fall below 0.7 kcal/mol; assign not met whenever it does.

// below: answered sequences
SAGGSMPLTLEIKAPASTPASEIVATLKKYGPVTVTLGDGRTYNIPRDKPPNLKGLPLAPDAVLTLVVSAGG [r13_399_JUSTAS]
not met
SMIIPPELGFEEAVELIKELLEPEKTYLVVTGDPETGTLSVARLDPETGEVEVEPLPTTEGESFVAVFEISA [r9_1059_TrMRF]
met
SAGGSAGGSAGGSAVEVDPNGGVTRTRYPGGAVRLETVSPTPDGSLATRTEEVELPGLASAGGSAGGSAGGS [r4_248_JUSTAS]
not met
SAGGSAGGMVKTYKTDKETAIELAEKIKKQGVKVEITPHPDSTLLTITINEPKIDPKNSPNIIISAGGSAGG [r6_392_JUSTAS]
not met
SAMKTVTIKVTVEVTKNENGEEVKTVTVTLTLPEEEMTEEQLKELAKELADKLAEENNLTVKITKIEVTSAG [r14_190_TrROS_Hall]
met
SAMELRVESELFPDGRRRLVVLDPGDGAPVVTFIDLEPVDGGYRASITQIGPDPAVAERVARELGIPPESAG [r14_545_TrMRF]
met
SAGGSAGGSPNDMKEVDFPIKFPKEKFKVKIWRHPDDPNRYYIRFPSNGAIFWFDPNGDIEPLSAGGSAGGS [r12_580_TrROS]
met
SAGLKVKIVKAEVKNGYLTLEVEVTGKDGSKKPFKIKIKLKPVPKPKPVFKFTKLPNGEIKVEVFDPSSAGG [r19_172_TrMRF]
met

Decide: folding stability dG unfold of SAGGKAELAANPGVVRVEVELVDPSGPVALPTREYLYPEGDPAALRAAIEAEIPADLAVARVTFTRLGSAGG [r13_849_JUSTAS] >= 0.7 kcal/mol?
not met

Decide: folding stability dG unfold of SAGGSANNWKPIGEFPFRHPDGWRVTVPIWRDPGEGNIKINVKYQGPNGPPSKQMKEWAKKLLDEISAGGSA [r15_529_TrROS] >= 0.7 kcal/mol?
met

Decide: folding stability dG unfold of SAGKLKPGDPVKIKIEIERDPGNGMVRVTYKIEFKDGMYVTMIIPPNGPIHVEIFNPDDGKEREETIPLSAG [r5_55_TrROS] >= 0.7 kcal/mol?
met

Decide: folding stability dG unfold of SAGGSAMNPKLEALPEVEITEEKTEEYKTAENKKLLVKEYKSNAEPGKTYKVIYDPETGKVLSVEESAGGSA [r15_66_JUSTAS] >= 0.7 kcal/mol?
met

Measured values drawn from the supplement of paper PMC12764529 for this set.
